Below, each of the compounds is paired with its reported p53 reporter assay: % Effect value.
test system: p53 responsive β-lactamase reporter in HCT116 cells; assay: cells; assay type: cell-based; conditions: 0% FBS 4Hr
attribute-measured: p53 reporter assay: % Effect (%)

>>> result_value("CC(=O)N[C@H](C(=O)N[C@@H](CO)C(=O)N[C@@H](Cc1ccccc1)C(=O)N[C@]1(C)CCCCCCC=CCCC[C@@](C)(C(N)=O)NC(=O)[C@H](CC(C)C)NC(=O)[C@H](CC(C)C)NC(=O)[C@H](C)NC(=O)[C@H](Cc2c[nH]c3ccccc23)NC(=O)[C@H](Cc2ccc(O)cc2)NC(=O)[C@H](CCC(=O)O)NC1=O)[C@@H](C)O [MP-090]")
110.7
>>> result_value("CC(=O)N[C@@H](CCCCN=[N+]=[N-])C(=O)NCCC(=O)N[C@@H](CC(C)C)C(=O)N[C@H](C(=O)N[C@@H](Cc1ccccc1)C(=O)N[C@]1(C)CCCCCCn2cc(nn2)CCC[C@@](C)(C(=O)N[C@@H](CO)C(=O)N[C@@H](C)C(=O)N[C@@H](C)C(N)=O)NC(=O)[C@H](CC2CCC2)NC(=O)[C@H](CCC(N)=O)NC(=O)[C@H](C)NC(=O)[C@H](Cc2c[nH]c3ccccc23)NC(=O)[C@H](Cc2ccc(O)cc2)NC(=O)[C@H](CCC(=O)O)NC1=O)[C@@H](C)O [MP-707]")
101.9
>>> result_value("CC(=O)N[C@@H](CCCCN)C(=O)NCCCCCC(=O)N[C@H](C(=O)N[C@@H](CO)C(=O)N[C@@H](Cc1ccccc1)C(=O)N[C@]1(C)CCCCCCC=CCCC[C@@](C)(C(=O)N[C@@H](CCC(=O)O)C(=O)N[C@@H](CC(N)=O)C(=O)N[C@@H](Cc2ccccc2)C(N)=O)NC(=O)[C@H](CC(C)C)NC(=O)[C@H](CC(C)C)NC(=O)[C@H](C)NC(=O)[C@H](Cc2c[nH]c3ccccc23)NC(=O)[C@H](Cc2ccc(O)cc2)NC(=O)[C@H](CCC(=O)O)NC1=O)[C@@H](C)O [MP-82094]")
109.5
>>> result_value("CC(=O)N[C@@H](CCCCN=[N+]=[N-])C(=O)NCCC(=O)N[C@@H](CC(C)C)C(=O)N[C@H](C(=O)N[C@@H](Cc1ccccc1)C(=O)N[C@]1(C)CCCCCCC=CCCC[C@@](C)(C(=O)N2CCC[C@@H]2C(=O)N2CCC[C@@H]2C(=O)N2CCC[C@@H]2C(=O)N2CCC[C@@H]2C(=O)N2CCC[C@@H]2C(=O)N2CCC[C@@H]2C(N)=O)NC(=O)[C@H](CC2CCC2)NC(=O)[C@H](CCC(N)=O)NC(=O)[C@H](C)NC(=O)[C@H](Cc2c[nH]c3ccccc23)NC(=O)[C@H](Cc2ccc(O)cc2)NC(=O)[C@H](CCC(=O)O)NC1=O)[C@@H](C)O [MP-896]")
28.91
>>> result_value("CC(=O)N[C@@H](CC(C)C)C(=O)N[C@H](C(=O)N[C@@H](Cc1ccccc1)C(=O)N[C@]1(C)CCCCCCC=CCCC[C@@](C)(C(=O)N[C@@H](CO)C(=O)N[C@@H](C)C(=O)N[C@@H](C)C(N)=O)NC(=O)[C@H](CC(C)C)NC(=O)[C@H](CCC(N)=O)NC(=O)[C@H](C)NC(=O)[C@H](Cc2c[nH]c3ccccc23)NC(=O)[C@H](Cc2ccc(O)cc2)NC(=O)[C@H](CCC(=O)O)NC1=O)[C@@H](C)O [MP-211]")
96.16
>>> result_value("CC(=O)N[C@@H](CCCCN)C(=O)NCCCCCC(=O)N[C@H](C(=O)N[C@@H](CO)C(=O)N[C@@H](Cc1ccccc1)C(=O)N[C@]1(C)CCCCCCC=CCCC[C@@](C)(C(N)=O)NC(=O)[C@H](CC(C)C)NC(=O)[C@H](CC(C)C)NC(=O)[C@H](C)NC(=O)[C@H](Cc2c[nH]c3ccccc23)NC(=O)[C@H](Cc2ccc(O)cc2)NC(=O)[C@H](CCC(=O)O)NC1=O)[C@@H](C)O [MP-716]")
93.75
>>> result_value("CC(=O)N[C@@H](CC(C)C)C(=O)N[C@H](C(=O)N[C@@H](Cc1ccccc1)C(=O)N[C@]1(C)CCCCCCC=CCCC[C@@](C)(C(=O)N[C@@H](CO)C(=O)N[C@@H](C)C(=O)N[C@@H](C)C(N)=O)NC(=O)[C@H](CC(C)C)NC(=O)[C@H](CCC(N)=O)NC(=O)[C@H](C)NC(=O)[C@H](Cc2c[nH]c3ccccc23)NC(=O)[C@H](Cc2ccc(O)cc2)NC(=O)[C@H](CCC(=O)O)NC1=O)[C@@H](C)O [MP-154]")
150.7
>>> result_value("CC(=O)N[C@@H](CCCCN)C(=O)NCCCCCC(=O)N[C@H](C(=O)N[C@@H](CO)C(=O)N[C@@H](Cc1ccccc1)C(=O)N[C@]1(C)CCCCCCC=CCCC[C@@](C)(C(=O)N[C@@H](CCC(=O)O)C(=O)N[C@@H](CC(N)=O)C(=O)N[C@@H](Cc2ccccc2)C(N)=O)NC(=O)[C@H](CC(C)C)NC(=O)[C@H](CC(C)C)NC(=O)[C@H](C)NC(=O)[C@H](Cc2c[nH]c3ccccc23)NC(=O)[C@H](Cc2ccc(O)cc2)NC(=O)[C@H](CCC(=O)O)NC1=O)[C@@H](C)O [MP-6210]")
115.9
